These measurements were taken from ChEMBL document CHEMBL4339198.

# Assay notes: Drug metabolism in human liver microsomes assessed as rate of disappearance at 3 uM
# Format: ADME, Microsome
Here the recorded Drug metabolism is given for each entry.
Experimental endpoint: Drug metabolism (nmol/min)

> print(dat)
                                   molecule  experimental.endpoint  measured.value
1  CC(C)N(C)[C@@H]1CC[C@H](N2CC[C@H](NC(=O)c3cccc(C(F)(F)F)c3)C2=O)[C@H](CS(C)(=O)=O)C1        Drug metabolism               0
2  CC(=O)N[C@@H]1C[C@H](N(C)C(C)C)CC[C@@H]1N1CC[C@H](Nc2ncnc3ccc(C(F)(F)F)cc23)C1=O        Drug metabolism            0.01
3  CCC[C@@H]1C[C@H](N(C)C(C)C)CC[C@@H]1N1CC[C@H](Nc2ncnc3ccc(C(F)(F)F)cc23)C1=O        Drug metabolism               0
4  CC(C)N(C)[C@@H]1CC[C@H](N2CC[C@H](NC(=O)c3cccc(C(F)(F)F)c3)C2=O)[C@H](NS(C)(=O)=O)C1        Drug metabolism            0.05
5  CC(C)N(C)[C@@H]1CC[C@H](N2CC[C@H](Nc3ncnc4ccc(C(F)(F)F)cc34)C2=O)[C@H](CS(C)(=O)=O)C1        Drug metabolism               0
6  CC(C)N(C)[C@@H]1CC[C@H](N2CC[C@H](NC(=O)c3cccc(C(F)(F)F)c3)C2=O)[C@H](N(C)S(C)(=O)=O)C1        Drug metabolism               0
7  CC(C)N(C)[C@@H]1CC[C@H](N2CC[C@H](Nc3ncnc4ccc(C(F)(F)F)cc34)C2=O)[C@H](NS(C)(=O)=O)C1 [BMS-741672]        Drug metabolism            0.13
